Value source: ChEMBL document CHEMBL1129554

Here the recorded IC50 is given for each entry.
test system: IM-9; assay: In vitro antitumor activity in IM-9 cell lines; type: functional, cell-based; conditions: Homo sapiens

molecule | targetSystem | sign | IC50 / µg/mL
O=c1[nH]c(=O)n([C@@H]2O[C@H](CO)[C@@H](O)[C@H]2O)c(CF)c1F | IM-9 | > | 10
O=c1[nH]c(=O)n(C2O[C@H](CO)[C@@H](O)[C@H]2O)c(CO)c1F (some centres not stated) | IM-9 | = | 3
O=c1[nH]cc(F)c(=O)[nH]1 | IM-9 | = | 0.34
O=c1cc(CF)n(C2O[C@H](CO)[C@@H](O)[C@H]2O)c(=O)[nH]1 (some centres not stated) | IM-9 | = | 9.9
O=c1cc(CO)n(C2O[C@H](CO)[C@@H](O)[C@H]2O)c(=O)[nH]1 (some centres not stated) | IM-9 | > | 10
O=c1[nH]c(=O)n([C@@H]2O[C@H](CO)[C@@H](O)[C@H]2O)cc1F | IM-9 | < | 0.01
Cc1c(F)c(=O)[nH]c(=O)n1C1O[C@H](CO)[C@@H](O)[C@H]1O (some centres not stated) | IM-9 | > | 10
